Entries annotated with measured IC50
# System Under Test: T790M EGFR kinase (Homo sapiens, UniProt P00533, T790M)
# Sequence (P00533 25-1210 T790M): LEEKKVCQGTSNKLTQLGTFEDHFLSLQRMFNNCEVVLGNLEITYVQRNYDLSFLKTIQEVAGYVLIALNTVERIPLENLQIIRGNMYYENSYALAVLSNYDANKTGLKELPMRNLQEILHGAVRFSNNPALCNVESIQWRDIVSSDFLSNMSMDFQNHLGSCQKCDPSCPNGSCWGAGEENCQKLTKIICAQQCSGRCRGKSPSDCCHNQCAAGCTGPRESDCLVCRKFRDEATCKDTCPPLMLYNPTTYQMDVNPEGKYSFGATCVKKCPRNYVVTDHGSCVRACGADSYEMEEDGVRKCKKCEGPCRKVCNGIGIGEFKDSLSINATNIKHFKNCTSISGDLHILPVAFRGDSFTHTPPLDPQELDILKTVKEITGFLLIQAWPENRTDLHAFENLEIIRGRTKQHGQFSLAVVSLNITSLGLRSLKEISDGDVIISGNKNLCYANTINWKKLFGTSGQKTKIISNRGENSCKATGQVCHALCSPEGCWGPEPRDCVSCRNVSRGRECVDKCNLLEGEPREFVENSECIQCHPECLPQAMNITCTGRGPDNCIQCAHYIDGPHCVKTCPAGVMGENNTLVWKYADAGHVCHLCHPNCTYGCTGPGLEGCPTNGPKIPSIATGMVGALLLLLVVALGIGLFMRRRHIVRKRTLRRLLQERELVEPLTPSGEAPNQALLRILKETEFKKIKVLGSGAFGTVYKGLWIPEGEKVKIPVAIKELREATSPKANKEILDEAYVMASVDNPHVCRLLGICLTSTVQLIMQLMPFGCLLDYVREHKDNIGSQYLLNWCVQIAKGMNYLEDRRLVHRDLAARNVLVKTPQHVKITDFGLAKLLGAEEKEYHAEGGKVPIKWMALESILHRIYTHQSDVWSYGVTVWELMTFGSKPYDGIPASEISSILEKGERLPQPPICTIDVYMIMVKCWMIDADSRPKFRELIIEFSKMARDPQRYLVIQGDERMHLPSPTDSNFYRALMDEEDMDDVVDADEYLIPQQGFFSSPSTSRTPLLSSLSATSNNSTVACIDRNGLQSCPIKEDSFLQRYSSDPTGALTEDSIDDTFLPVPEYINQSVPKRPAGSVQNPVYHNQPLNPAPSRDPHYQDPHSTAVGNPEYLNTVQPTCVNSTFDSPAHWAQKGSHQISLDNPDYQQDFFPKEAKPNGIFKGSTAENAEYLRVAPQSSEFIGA
# Experimental Protocol: EGFR kinase assay (ADP-glo, polyGT substrate), T790M mutant
# Assay type: biochemical
# Stated Conditions: 100 μM ATP; read-out: IC50, inhibition of T790M EGFR kinase
Form entry: value (mM) — number only.

Please review the following examples before continuing.
>>> recorded_measurement("NC(CSSCCS(=O)(=O)O)C(=O)NC(CCC(=O)O)C(=O)O (stereo not shown) [Mesna-Cysteinylglutamate]")
1.05
>>> recorded_measurement("NC(CSSCCS(=O)(=O)O)C(=O)O (stereo not shown)")
3.03
>>> recorded_measurement("NC(CSSCCS(=O)(=O)O)C(=O)NCC(=O)O (stereo not shown)")
0.41

Let us move to another entry and its IC50.
-- ask Query: IC50; subject: NC(CCC(=O)NC(CSSCCS(=O)(=O)O)C(=O)NCC(=O)O)C(=O)O (stereo not shown)
-- reply 1.17

###

# System Under Test: T790M EGFR kinase (Homo sapiens, UniProt P00533, T790M)
# Experimental Protocol: EGFR kinase assay (ADP-glo, polyGT substrate), T790M mutant
# Format: biochemical
# Stated Conditions: 10 μM ATP; read-out: IC50, inhibition of T790M EGFR kinase
This section presents molecules with their documented IC50 values.
Write the numeric value and append its unit.

Use these answered entries as a reference point.
>>> recorded_measurement("NC(CCC(=O)NC(CSSCCS(=O)(=O)O)C(=O)NCC(=O)O)C(=O)O (stereo not shown)")
"1280 µM"
>>> recorded_measurement("NC(CSSCCS(=O)(=O)O)C(=O)NC(CCC(=O)O)C(=O)O (stereo not shown) [Mesna-Cysteinylglutamate]")
"1090 µM"
>>> recorded_measurement("NC(CSSCCS(=O)(=O)O)C(=O)NCC(=O)O (stereo not shown)")
"510 µM"

Could you now look at the following molecule, please?
-- ask Give the measured IC50 of NC(CSSCCS(=O)(=O)O)C(=O)O (stereo not shown) .
-- reply 3760 µM
